The reader will find reported IC50 values listed item by item below.
System: SMMC-7721
Assay: Cytotoxicity against human SMMC7721 cells after 48 hrs by MTS assay
Format: functional, cell-based
Details: SMMC-7721, 48 h
QUANTITY MEASURED: IC50 (µM)

>>> measured_value("COc1ccc2cc1Oc1ccc(cc1)C[C@H]1c3c(cc4c(c3Oc3cc5c(cc3OC)CCN(C)[C@@H]5C2)OCO4)CCN1C")
9.9
>>> measured_value("COc1ccc2cc1Oc1ccc(cc1)C[C@H]1c3c(cc4c(c3Oc3cc5c(cc3OC)CCN[C@@H]5C2)OCO4)CCN1C")
4.8

* * *

The reader will find reported IC50 values listed item by item below.
System: SMMC-7721
Test: Cytotoxicity against human SMMC7721 cells after 48 hrs by MTS assay
Format: functional, cell-based
Conditions: SMMC-7721, 48 h
QUANTITY MEASURED: IC50

>>> measured_value("COc1ccc2cc1Oc1ccc(cc1)C[C@H]1c3c(cc(OC)c(O)c3Oc3cc4c(cc3OC)CCN(C)[C@@H]4C2)CCN1C [HOMOAROMOLINE]")
"> 10 µM"
>>> measured_value("COc1ccc2cc1Oc1ccc(cc1)C[C@H]1c3c(cc4c(c3Oc3cc5c(cc3OC)CCN=C5C2)OCO4)CC[N@@+]1(C)[O-]")
"> 10 µM"
>>> measured_value("COc1ccc2cc1Oc1ccc(cc1)C[C@H]1c3cc(c(OC)cc3CCN1C)Oc1c(O)c(OC)cc3c1[C@H](C2)N(C)CC3 [FANGCHINOLINE]")
"> 10 µM"
